log10 IC50 at 72 h listing for selected compounds.
# EXPERIMENTAL PROTOCOL: DNDI: Cytotoxicity against L929 mouse fibroblasts, 72 hour.
# Assay type: toxicity, cell-based
# STATED CONDITIONS: mouse, L929 mouse fibroblasts
Kindly note that the scale is log10 and the underlying IC50 at 72 h is in µg/mL.

The cases that follow already have their log10 IC50 at 72 h on record.
Suppose we examine the compound CCOc1ccc(-c2nc(CNC3CC4CCC3C4)co2)cc1 (configuration not stated) ; what log10 IC50 at 72 h value has been reported?
0.66

// lookup log10 IC50 at 72 h for "CCCCc1ccc(-c2nc(CNC3CCCC3)co2)cc1"
0.40

Further cases:
Please give the measured log10 IC50 at 72 h for this compound: CCCCCC(C)NCc1coc(-c2ccc(OC(F)F)cc2)n1 (configuration not stated)
0.58

Which measured log10 IC50 at 72 h value corresponds to "O=c1cc(-c2ccccc2)[nH]c2cc(-c3cccc(F)c3)nn12" ?
0.69

* * *

This section presents compounds with their documented IC50 values.
# Test system: Leishmania donovani
# EXPERIMENTAL PROTOCOL: DNDI: Inhibition of formation of Leishmania donovani (strain MHOM/ET/67/L82) axenic amastigotes, in vitro.
# Assay type: functional, organism-based
The response must be a number in µg/mL with no trailing unit.

# annotated cases, reported IC50 shown
Param item = "CCc1ccc(/C(=N/O)NC2CCCCC2)cc1" ; retrieve measured IC50.
11.3

I have this compound here, "CCCCc1ccc(-c2nc(CN[C@@H]3C[C@@H]4C[C@H]([C@H]3C)C4(C)C)co2)cc1" , and I need its recorded IC50.
4.61

Any idea what IC50 was measured for CCCCCC(C)NCc1coc(-c2ccccc2)n1 (stereo not drawn) ?
29.5

Others:
Which IC50 reading was recorded for the compound CCCCc1ccc(-c2nc(CNC3[C@H]4C[C@@H]5C[C@@H](C[C@H]3C5)C4)co2)cc1 (stereo partly drawn) ?
9.58

* * *

microsomal CLint at 10 µM values, listed per item
# EXPERIMENTAL PROTOCOL: DNDI: in vitro intrinsic clearance in mouse liver microsomes at a concentration of 10uM
# Format: ADME, Microsome
# STATED CONDITIONS: read-out: CLint in vitro
Quick note: give the figure in µL/min/mg, leave out the unit.

Given the compound CCCCCC(C)NCc1coc(-c2cccc(OCC)c2)n1 (configuration not stated) , what is its reported microsomal CLint at 10 µM?
97

***
Need microsomal CLint at 10 µM of "COc1ccccc1Oc1ncccc1/C(=N\O)NC1CCCCC1" , thanks.
138

# microsomal CLint at 10 µM lookup, item CCOc1ccc(-c2nc(CNC3C[C@@H]4C[C@H]([C@H]3C)C4(C)C)co2)cc1 (some centres not stated)
121

What does the data say about its microsomal CLint at 10 µM? Entry: CCCCCC(C)NCc1coc(-c2ccc(OC)cc2)n1 (configuration not stated)
15

* * *

# EXPERIMENTAL PROTOCOL: DNDI: Cytotoxicity against L929 mouse fibroblasts, CYTO-SP, 24 hour
# Format: toxicity, cell-based
# STATED CONDITIONS: mouse, L929 mouse fibroblasts
QUANTITY MEASURED: IC50 at 24 h

Please review the entries below; each comes with its answer.
# query: IC50 at 24 h of entry "O/N=C(/NC1CCCCC1)c1cccnc1Oc1ccccc1"
> 50 µg/mL

Query: IC50 at 24 h; subject: "COc1ccccc1/C(=N/O)N(C(=O)C(C)C)C(=O)C(C)C"
> 50 µg/mL

Entry under review: CCOc1ccc(-c2nc(CNC3CC4CCC3C4)co2)cc1 (stereo unspecified) . Reported IC50 at 24 h?
35 µg/mL

// IC50 at 24 h lookup, key: "O/N=C(\NC1CCC1)c1cccnc1OCC1CCCCC1"
> 50 µg/mL

Requested read-out: IC50 at 24 h. Entry: "O/N=C(\NC1CCCCC1)C1CCCCC1"
> 50 µg/mL

Need IC50 at 24 h of CCCCCC(C)NCc1coc(-c2ccc(Cl)c(Cl)c2)n1 (stereo unspecified) , thanks.
17 µg/mL

Fill blank: measured IC50 at 24 h of the compound "O=C(NC1CCCCC1)c1cccnc1Oc1ccccc1Cl" is ____.
> 50 µg/mL

Field request: IC50 at 24 h | item: "CCC(CC)N/C(=N\O)c1ccccc1-c1ccccc1"
> 50 µg/mL

Further cases:
Look up IC50 at 24 h: Clc1ccsc1-c1nc(CNC2[C@H]3C[C@@H]4C[C@@H](C[C@H]2C4)C3)co1 (stereo partly specified)
> 50 µg/mL

For CC1CC(N/C(=N\O)c2cccnc2Oc2ccccc2OC(C)C)CC(C)(C)C1 (stereo unspecified) , what is its reported IC50 at 24 h?
> 50 µg/mL

IC50 at 24 h for CC1CCC(N/C(=N\O)c2cccnc2Oc2c(F)cccc2F)CC1 (stereo unspecified) ?
> 50 µg/mL

* * *

Recorded IC50 at 72 h by entry
# EXPERIMENTAL PROTOCOL: DNDI: Cytotoxicity against L929 mouse fibroblasts, 72 hour.
# Assay type: toxicity, cell-based
# STATED CONDITIONS: mouse, L929 mouse fibroblasts
Express your answer in µg/mL, writing the number without its unit.

Here's what some known entries look like.
Look up IC50 at 72 h for this compound: CCCCCC(C)NC(=O)c1coc(-c2ccccc2)n1 (stereo not drawn)
27.2

Record request: IC50 at 72 h value, item Clc1ccc(-c2nc(CNC3[C@H]4C[C@@H]5C[C@@H](C[C@H]3C5)C4)co2)cc1 (stereo partly drawn)
6.73

---
So what's the measured IC50 at 72 h for this one? "CCOc1ccc(-c2nc(CNC[C@@H]3CC[C@H]4C[C@@H]3C4(C)C)co2)cc1"
3.26

Look up IC50 at 72 h for this compound: Clc1ccsc1-c1nc(CNC2[C@H]3C[C@@H]4C[C@@H](C[C@H]2C4)C3)co1 (stereo partly drawn)
10.6

* * *

# EXPERIMENTAL PROTOCOL: DNDI: in vitro intrinsic clearance in human liver microsomes at a concentration of 10uM
# Format: ADME, Microsome
Reported CLint in vitro values follow for various compounds

Some entries whose results are on file:
Give its CLint in vitro value. Item: "O/N=C(/NC1CCCCC1)c1cccnc1Oc1ccccc1"
9 µL/min/mg

So what's the measured CLint in vitro for this one? "COc1cc(C)ccc1Oc1ncccc1/C(=N/O)NC1CCCCC1"
19 µL/min/mg

Sample CCCCCC(C)NCc1coc(-c2ccc(OC)cc2)n1 (stereo unspecified) — what was its CLint in vitro?
44 µL/min/mg

CLint in vitro lookup needed for "O/N=C(\NC1CCCCC1)c1ccccc1-c1ccccc1" , thanks.
5 µL/min/mg

Give its CLint in vitro value. Item: CCCCCC(C)NCc1coc(-c2cccc(OC)c2)n1 (stereo unspecified)
23 µL/min/mg

---
Would you kindly share the measured CLint in vitro for "O/N=C(\NC1CCCCC1)c1ccccc1Oc1ccccc1" ?
45 µL/min/mg

May I ask what CLint in vitro has been recorded for "COc1ccc(/C(=N/O)NC2CCCCC2)cc1" ?
38 µL/min/mg

* * *

# EXPERIMENTAL PROTOCOL: DNDI: Solubility in phosphate buffered saline at pH7.4 measured by nephelometry at room temperature (NEPH-RT)
# Assay type: physicochemical
# STATED CONDITIONS: pH 7.4
# solubility kinetic >= 10 µM gives label 1, anything below gives label 0

Use these answered entries as a reference point.
Dear colleague, could you confirm whether "CCCCc1ccc(-c2nc(CNC3CCCCCC3)co2)cc1" has solubility kinetic at or above 10 µM?
label 1

Has "Fc1cccc(-c2cc3nc(-c4ccccc4)cc(NCCCN4CCCC4)n3n2)c1" a recorded solubility kinetic greater than or equal to 10 µM?
label 0

Does the reported solubility kinetic for CCC(C)C1C(=O)CC(=O)N1C(=O)OC(C)(C)C (configuration not stated) fall at or above the 10 µM mark?
label 1

Record CCCCCC(C)NCc1coc(-c2ccc(OCC(C)(C)C)cc2)n1 (configuration not stated) ; criterion: solubility kinetic no lower than 10 µM. Met?
label 0

Test whether the compound CCCCCC(C)NCc1coc(-c2ccc(OCC(=O)c3ccccc3)cc2)n1 (configuration not stated) records solubility kinetic of 10 µM or higher.
label 0

Quick check: does COc1ccc(CNC(CC(C)C)c2nc(Cc3ccccc3)c(N3CCOCC3)o2)cc1 (configuration not stated) have solubility kinetic greater than or equal to 10 µM?
label 1

Please turn your attention to the following entry.
solubility kinetic >= 10 µM for "CCCCc1ccc(-c2nc(CN[C@@H]3C[C@@H]4C[C@H]([C@H]3C)C4(C)C)co2)cc1" ?
label 0

* * *

# EXPERIMENTAL PROTOCOL: DNDI: Cytotoxicity against L929 mouse fibroblasts, 72 hour.
# Format: toxicity, cell-based
# STATED CONDITIONS: mouse, L929 mouse fibroblasts
With a cut-off of 7 µg/mL, any IC50 at 72 h strictly below it is called T; any IC50 at 72 h meeting it or above is called F.

The following compounds have reported results that may help.
Is IC50 at 72 h strictly under 7 µg/mL for the entry CCCCCC(C)NCc1coc(-c2ccc(OC)cc2)n1 (stereo unspecified) ?
F

Dear reviewer, please state whether CCCCCC(C)NCc1coc(-c2cccc(Oc3ccccc3)c2)n1 (stereo unspecified) has IC50 at 72 h strictly beneath 7 µg/mL.
T

Confirm or reject: IC50 at 72 h of "CN(C)CCNc1cc(-c2ccccc2)nc2cc(-c3ccc(F)cc3)nn12" lies strictly below 7 µg/mL
F

Does the reported IC50 at 72 h of "Nc1oc(-c2ccccc2)nc1C(=O)c1ccc(-c2ccccc2)cc1" stay below 7 µg/mL?
T

Is IC50 at 72 h strictly under 7 µg/mL for the entry "Cc1cc(=O)n2nc(-c3cccc(F)c3)cc2[nH]1" ?
F

Please check: IC50 at 72 h for Fc1ccc(-c2cc3nc(-c4ccccc4)cc(NC4CCNC4)n3n2)cc1 (stereo unspecified) , strictly under 7 µg/mL or not?
T

Given "O/N=C(\Nc1cccc(F)c1)c1cccnc1Oc1c(F)cccc1F" , is recorded IC50 at 72 h strictly lower than 7 µg/mL?
F

Below 7 µg/mL on IC50 at 72 h? Entry "CCCCc1ccc(-c2nc(C(=O)OCC)co2)cc1"
F

Regarding "CCCCc1ccc(-c2nc(CNCc3ccccn3)co2)cc1" , kindly confirm whether its IC50 at 72 h is beneath 7 µg/mL.
F

As a next step, examine the compound that follows.
Confirm or reject: IC50 at 72 h of "Fc1cccc(-c2cc3nc(-c4ccccc4)cc(NCCN4CCCCC4)n3n2)c1" lies strictly below 7 µg/mL
F
